targetOrTestSystem: KPC-2 β-lactamase (UniProt Q9F663 25-293)
Sequence (Q9F663 25-293): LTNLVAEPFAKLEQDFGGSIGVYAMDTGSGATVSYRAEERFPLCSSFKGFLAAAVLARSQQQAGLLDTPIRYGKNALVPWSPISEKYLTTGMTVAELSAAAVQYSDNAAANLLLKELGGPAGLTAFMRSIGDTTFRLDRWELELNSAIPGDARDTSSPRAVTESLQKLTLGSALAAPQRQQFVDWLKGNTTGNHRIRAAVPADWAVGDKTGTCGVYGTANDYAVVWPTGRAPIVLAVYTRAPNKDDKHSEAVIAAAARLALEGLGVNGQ
procedureSummary: β-lactamase inhibition assay (nitrocefin hydrolysis, Morrison tight-binding fit); increasing concentrations of BLIP incubated with 1 nM β-lactamase for 1 h at room temperature in 50 mM sodium phosphate pH 7.0; nitrocefin added at its Km, initial velocity at 482 nm; Ki calculated from Ki app
settings: both partners purified
Field: pKi. Provide a value for each of the binders that follow.
One number for each entry, as −log10 of the molar value.

Record excerpt, results attached:
1. BLIP [change] (natural protein) AGVMTGAKFTQIQFGMTRQQVLDIAGAENCETGGSFGDSIHCRGHAAGDDYAYATFGFTSAAADAKVDSKSQEKLLAPSAPTLTLAKFNQVTVGMTRAQVLATVGQGSCTTWSEYYPAYPSTAGVTLSLSCFDVDGYSSTGFYRGSAHLWFTDGVLQGKRQWDLV :: 8.49
2. BLIP [change] (natural protein) AGVMTGAKFTQIQFGMTRQQVLDIAGAENCETGGSFGDSIHCRGHAAGDRYAYATFGFTSAAADAKVDSKSQEKLLAPSAPTLTLAKFNQVTVGMTRAQVLATVGQGSCTTWSEYYPAYPSTAGVTLSLSCFDVDGYSSTGFYRGSAHLWFTDGVLQGKRQWDLV :: 7.96

API: the following record is the query input.
Enquiry: What measured pKi goes with BLIP [change] (natural protein) AGVMTGAKFTQIQFGMTRQQVLDIAGAENCETGGSFGDSIHCRGHAAGDHYAYATFGFTSAAADAKVDSKSQEKLLAPSAPTLTLAKFNQVTVGMTRAQVLATVGQGSCTTWSEYYPAYPSTAGVTLSLSCFDVDGYSSTGFYRGSAHLWFTDGVLQGKRQWDLV ?
Return: 8.85
